- target_desc: T1, human CD3ε/δ-His (human, UniProt P07766 23-126; P04234 22-105)
- T1 construct: Bought recombinant heterodimer with His tag; also called human CD3ε/δ protein
- measurement_protocol: ELISA, coated antigen
readout_kind: max-OD450
Answer shape: numeric part, then the unit.

Using the record for 6-35.22-H1-L1 humanized antibody (antibody, human IgG1, kappa, V domains shown) VH: EVQLVESGGGVVQPGRSLRLSCAASGFTFTDYYMSWVRQAPGKGLEWVAMSRNKAKGHTIEYSSSVKGRFTISRDNSKNTLYLQMNSLRAEDTAVYYCARDTYESYDGYFDVWGQGTTVTVSS VL: DIVMTQSPDSLAVSLGERATINCKSSQSLFNSRSRKNYLAWYQQKPGQTPKLLIYWASIRESGVPDRFSGSGSGTDFTLTISSLQAEDVAVYYCKQSYYLYTFGQGTKLEIKR , report its max-OD450.
2.93 OD450

Values were extracted from patent US20250136687A1.
